Tested on: OVCAR-5 ovarian
Procedure text: NCI-60 one-dose screen, 48 h (100 = growth as untreated, 0 = no growth, -100 = all killed)
Settings: 10 µM unless noted
Compounds without any hit were thinned out: in the full panel of roughly 83,000, 20% have a hit.
Quantity measured: growth (%)
Write it as a number; the unit % goes unstated.

Given the compound "COc1cc(/C=C2\COc3ccc(-c4ccccc4)cc3C2=O)cc(OC)c1" and test system OVCAR-5 ovarian, the measured growth is 106

* * *

Test system: SN12C renal
Procedure text: NCI-60 one-dose screen, 48 h (100 = growth as untreated, 0 = no growth, -100 = all killed)
Settings: 10 µM unless noted
Compounds without any hit were thinned out: in the full panel of roughly 83,000, 20% have a hit. The source made the active and inactive calls. How the source made its calls: active means growth percent below 10; inactive means the rest.
Quantity measured: growth

In [3]: df
Out[3]:
                                   compound               val
0  C=C1C(=O)O[C@H]2[C@H]1CC/C(COC(=O)NCc1c[nH]c3ccc(Br)cc13)=C\CC[C@@]1(C)O[C@@H]21   -43.2% (active)
1  NS(=O)(=O)c1ccc(Cn2c(SCC(=O)N/N=C/c3ccccc3O)nc3ccccc3c2=O)cc1  56.2% (inactive)
2  CCCOc1ccc(/C=N/Nc2cc(C)nc3ccc(Br)cc23)cc1  84.4% (inactive)
3  CCOC(=O)CSc1nc2ccccc2c(=O)n1Cc1ccc(S(N)(=O)=O)cc1  99.5% (inactive)

So for "c1ccc(Cn2cnc3ccc(-c4nc(-c5ccc6c(c5)ncn6C5CCCCC5)cn5ccnc45)cc32)cc1" , the logged growth turned out to be -35.4% (active)

So for "Cn1cc(-c2nc(-c3c[nH]c4c(Cl)nccc34)cs2)c2cc(F)ccc21" , the logged growth turned out to be 98.6% (inactive)

So for "Nc1c(C(=O)Nc2cccc3cnccc23)sc2nc3c(cc12)CN(Cc1ccccc1)CC3" , the logged growth turned out to be 97.5% (inactive)
